Entry source: the supplement of paper PMC7877785

Assay: self-splicing fitness, log relative to wild type (ln ratio); higher = more splicing; Tetrahymena group I intron in knt gene, E. coli kanamycin selection, DiMSum; sequences stand for … in CUCUCU…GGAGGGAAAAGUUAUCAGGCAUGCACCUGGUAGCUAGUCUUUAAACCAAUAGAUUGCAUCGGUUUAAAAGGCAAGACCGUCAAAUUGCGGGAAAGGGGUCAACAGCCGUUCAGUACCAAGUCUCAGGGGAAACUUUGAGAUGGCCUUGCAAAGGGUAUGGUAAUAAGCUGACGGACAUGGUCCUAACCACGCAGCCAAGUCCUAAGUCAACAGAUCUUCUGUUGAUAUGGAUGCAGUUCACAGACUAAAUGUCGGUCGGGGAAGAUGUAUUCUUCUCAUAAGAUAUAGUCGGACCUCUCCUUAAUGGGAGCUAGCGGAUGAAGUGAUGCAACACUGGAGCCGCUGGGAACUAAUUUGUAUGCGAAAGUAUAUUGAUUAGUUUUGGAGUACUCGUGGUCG;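 also: selection with 25 µg/mL kanamycin versus none on LB agar overnight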
Settings: 37 °C
Yes means recorded self-splicing fitness (ln) is -2 or above; No means it is below -2.

Q: Say whether UAUCAGCAAUAUUACGCUGA shows self-splicing fitness (ln) of -2 or more.
Result: No

Q: Say whether UCGUAGCAAUAUUACGCGGC shows self-splicing fitness (ln) of -2 or more.
Result: No

Q: Say whether GCGGAGCAAUAUUACGUAUA shows self-splicing fitness (ln) of -2 or more.
Result: No

Q: Say whether GACGAGCAAUAUUACGACGC shows self-splicing fitness (ln) of -2 or more.
Result: Yes

Q: Say whether GUACAGCAAUAUUACGACGU shows self-splicing fitness (ln) of -2 or more.
Result: Yes

Q: Say whether ACGAAGCAAUAUUACGUUUU shows self-splicing fitness (ln) of -2 or more.
Result: Yes

Q: Say whether GCCGAGCAAUAUUACGCUCU shows self-splicing fitness (ln) of -2 or more.
Result: Yes

Q: Say whether CGAGAGCAAUAUUACGCUCG shows self-splicing fitness (ln) of -2 or more.
Result: No

Q: Say whether UAUGAGCAAUAUUACGUAGC shows self-splicing fitness (ln) of -2 or more.
Result: No

###

Field: self-splicing fitness (ln). Provide a value for each of the sequences that follow.
Experiment: self-splicing fitness, log relative to wild type (ln ratio); higher = more splicing; Tetrahymena group I intron in knt gene, E. coli kanamycin selection, DiMSum; sequences stand for … in CUCUCU…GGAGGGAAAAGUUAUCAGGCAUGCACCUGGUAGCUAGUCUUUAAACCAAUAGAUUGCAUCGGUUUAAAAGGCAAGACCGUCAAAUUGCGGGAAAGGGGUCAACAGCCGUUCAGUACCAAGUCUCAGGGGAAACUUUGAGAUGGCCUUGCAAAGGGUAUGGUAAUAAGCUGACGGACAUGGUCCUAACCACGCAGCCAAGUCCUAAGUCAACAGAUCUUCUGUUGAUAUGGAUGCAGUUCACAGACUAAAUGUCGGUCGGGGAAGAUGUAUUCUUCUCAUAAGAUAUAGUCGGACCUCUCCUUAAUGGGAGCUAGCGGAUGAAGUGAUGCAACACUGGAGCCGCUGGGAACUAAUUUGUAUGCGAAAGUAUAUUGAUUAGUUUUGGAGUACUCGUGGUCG
Conditions: 37 °C
Give bare numbers.

# annotated cases, reported self-splicing fitness (ln) shown
AACAAGCAAUAUUACGUAAC | -2.33
CAGUAGCAAUAUUACGUCAG | 0.623

Could you tell me self-splicing fitness (ln) for each of these sequences? They are listed below.
1. GUAGAGCAAUAUUACGCCUC
2. CCGCAGCAAUAUUACGCCCA
3. UCUUAGCAAUAUUACGGUCC
4. GAGCAGCAAUAUUACGGCGG
5. UCGAAGCAAUAUUACGUGCU
6. ACCGAGCAAUAUUACGAAAU

Result:
-0.67
-2.55
-2.74
-1.77
-3.77
-2.76

Could you tell me self-splicing fitness (ln) for each of these sequences? They are listed below.
1. AACGAGCAAUAUUACGAUAG
2. GACAAGCAAUAUUACGUGCU
3. UAGAAGCAAUAUUACGGACC
4. CUUAAGCAAUAUUACGUCUU
5. GCUUAGCAAUAUUACGGUCC
6. GUCCAGCAAUAUUACGCAGG
7. AUAAAGCAAUAUUACGUUUC
8. GUAAAGCAAUAUUACGGACG

Result:
-2.49
-1.82
-0.433
-3.11
0.242
-3.72
-2.64
0.298

###

Experiment: self-splicing fitness, log relative to wild type (ln ratio); higher = more splicing; Tetrahymena group I intron in knt gene, E. coli kanamycin selection, DiMSum; sequences stand for … in CUCUCU…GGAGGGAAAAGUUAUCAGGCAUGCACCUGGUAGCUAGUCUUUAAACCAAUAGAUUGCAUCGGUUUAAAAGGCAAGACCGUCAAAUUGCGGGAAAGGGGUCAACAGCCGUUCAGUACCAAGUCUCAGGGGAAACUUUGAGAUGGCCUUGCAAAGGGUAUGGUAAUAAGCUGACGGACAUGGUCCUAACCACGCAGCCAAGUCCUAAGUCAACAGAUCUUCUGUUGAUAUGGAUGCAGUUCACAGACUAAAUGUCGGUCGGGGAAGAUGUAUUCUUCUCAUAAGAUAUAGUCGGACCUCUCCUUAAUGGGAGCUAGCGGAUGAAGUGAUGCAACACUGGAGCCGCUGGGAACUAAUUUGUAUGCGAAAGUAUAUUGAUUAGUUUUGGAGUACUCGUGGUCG
Conditions: 30 °C
satisfied means recorded self-splicing fitness (ln) is -2 or above; not satisfied means it is below -2.

Answered cases to consult:
UUACAGCAAUAUUACGCUGA | not satisfied
AGGAAGCAAUAUUACGUACC | satisfied
UGUCAGCAAUAUUACGACUU | satisfied

Q: Say whether AGGGAGCAAUAUUACGAGAG shows self-splicing fitness (ln) of -2 or more.
Result: not satisfied

Q: Say whether CGACAGCAAUAUUACGCAUG shows self-splicing fitness (ln) of -2 or more.
Result: satisfied

Q: Say whether GAGCAGCAAUAUUACGGAGG shows self-splicing fitness (ln) of -2 or more.
Result: not satisfied

###

Field: self-splicing fitness (ln). Provide a value for each of the sequences that follow.
Assay: self-splicing fitness, log relative to wild type (ln ratio); higher = more splicing; Tetrahymena group I intron in knt gene, E. coli kanamycin selection, DiMSum; sequences stand for … in CUCUCU…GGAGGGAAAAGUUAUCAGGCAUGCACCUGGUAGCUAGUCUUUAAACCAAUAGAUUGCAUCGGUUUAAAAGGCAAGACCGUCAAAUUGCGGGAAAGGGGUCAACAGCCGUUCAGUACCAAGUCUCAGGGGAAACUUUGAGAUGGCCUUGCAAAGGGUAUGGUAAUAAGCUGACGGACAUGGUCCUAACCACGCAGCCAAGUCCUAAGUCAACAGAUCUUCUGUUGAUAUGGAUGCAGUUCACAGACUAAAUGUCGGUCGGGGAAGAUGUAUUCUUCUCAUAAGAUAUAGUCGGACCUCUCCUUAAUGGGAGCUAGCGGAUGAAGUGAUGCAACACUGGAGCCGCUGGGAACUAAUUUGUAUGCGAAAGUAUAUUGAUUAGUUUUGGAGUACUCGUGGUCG
Settings: 30 °C

# annotated cases, reported self-splicing fitness (ln) shown
ACUUAGCAAUAUUACGAAUG | -2.24
CUUAAGCAAUAUUACGUACU | -2.82
AGAUAGCAAUAUUACGAAGG | -2.57

Could you tell me self-splicing fitness (ln) for each of these sequences? They are listed below.
1. AUAUAGCAAUAUUACGCAGC
2. UAGUAGCAAUAUUACGCGAG
3. CCAUAGCAAUAUUACGUCGU
4. UGAUAGCAAUAUUACGACUC
5. CAUGAGCAAUAUUACGCCGU
6. AUGAAGCAAUAUUACGGUAC
7. GACAAGCAAUAUUACGGAAU

Result:
1. -3.62
2. -1.57
3. -2.4
4. -3.07
5. -3.93
6. -1.71
7. -1.92

Could you tell me self-splicing fitness (ln) for each of these sequences? They are listed below.
1. GAAUAGCAAUAUUACGGGAU
2. CACUAGCAAUAUUACGUGAG
3. UUUAAGCAAUAUUACGUUGG
4. CGGUAGCAAUAUUACGUCGA
5. CCCAAGCAAUAUUACGCGGC
6. AUGAAGCAAUAUUACGGCUU

Result:
-2.06
-3.33
-1.45
-2.09
-2.8
-4.22

###

Test: self-splicing fitness, log relative to wild type (ln ratio); higher = more splicing; Tetrahymena group I intron in knt gene, E. coli kanamycin selection, DiMSum; sequences stand for … in CUCUCU…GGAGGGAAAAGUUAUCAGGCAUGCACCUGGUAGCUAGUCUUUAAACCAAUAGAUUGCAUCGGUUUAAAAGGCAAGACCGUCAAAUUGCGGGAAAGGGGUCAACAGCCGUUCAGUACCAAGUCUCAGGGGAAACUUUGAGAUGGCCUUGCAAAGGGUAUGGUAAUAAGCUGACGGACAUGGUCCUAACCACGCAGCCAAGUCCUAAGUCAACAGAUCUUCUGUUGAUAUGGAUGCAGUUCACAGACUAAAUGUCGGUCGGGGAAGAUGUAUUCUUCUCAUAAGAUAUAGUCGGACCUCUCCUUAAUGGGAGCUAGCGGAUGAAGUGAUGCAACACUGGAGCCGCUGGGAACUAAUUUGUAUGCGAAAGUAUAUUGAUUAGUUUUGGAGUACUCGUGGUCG
Conditions: 30 °C
criterion met means recorded self-splicing fitness (ln) is -2 or above; criterion not met means it is below -2.

Q: Say whether CCGCAGCAAUAUUACGCUCU shows self-splicing fitness (ln) of -2 or more.
Result: criterion not met

Q: Say whether UGGCAGCAAUAUUACGUAAA shows self-splicing fitness (ln) of -2 or more.
Result: criterion met

Q: Say whether UCUAAGCAAUAUUACGGUGU shows self-splicing fitness (ln) of -2 or more.
Result: criterion met
